biological target: Acetylcholinesterase (Electrophorus electricus, UniProt O42275); assay: Inhibition of electric eel AChE using ATChI as substrate
Sequence (O42275 whole entry): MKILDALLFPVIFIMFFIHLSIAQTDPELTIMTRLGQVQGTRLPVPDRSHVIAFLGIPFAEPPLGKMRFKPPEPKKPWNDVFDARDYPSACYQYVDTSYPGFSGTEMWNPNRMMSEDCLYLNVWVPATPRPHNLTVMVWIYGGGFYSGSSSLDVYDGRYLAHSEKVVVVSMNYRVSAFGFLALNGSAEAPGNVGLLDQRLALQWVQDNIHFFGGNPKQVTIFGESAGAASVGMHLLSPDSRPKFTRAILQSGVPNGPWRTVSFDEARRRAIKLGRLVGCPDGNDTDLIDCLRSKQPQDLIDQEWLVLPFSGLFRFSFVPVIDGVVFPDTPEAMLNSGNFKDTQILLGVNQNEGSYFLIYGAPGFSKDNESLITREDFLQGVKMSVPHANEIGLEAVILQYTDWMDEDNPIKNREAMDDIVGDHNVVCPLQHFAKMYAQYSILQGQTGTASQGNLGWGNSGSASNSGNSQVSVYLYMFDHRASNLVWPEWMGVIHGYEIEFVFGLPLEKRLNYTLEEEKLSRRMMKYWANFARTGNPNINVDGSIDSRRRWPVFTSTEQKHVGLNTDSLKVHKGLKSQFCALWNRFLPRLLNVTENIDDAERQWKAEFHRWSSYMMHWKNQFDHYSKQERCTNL
Recorded endpoint: pIC50
The scale used: pIC50 is minus the common logarithm of the concentration in molar units.

Q: // returns reported pIC50 for input `CCCOc1ccc2c(C)cc(=S)oc2c1OCCC`
Ans: 5.25

====

target: Cholinesterase (Homo sapiens); assay: Inhibition of human […] BChE using BTC iodide as substrate preincubated for 5 mins followed by substrate addition measured Ellmans method
Sequence (P06276 whole entry): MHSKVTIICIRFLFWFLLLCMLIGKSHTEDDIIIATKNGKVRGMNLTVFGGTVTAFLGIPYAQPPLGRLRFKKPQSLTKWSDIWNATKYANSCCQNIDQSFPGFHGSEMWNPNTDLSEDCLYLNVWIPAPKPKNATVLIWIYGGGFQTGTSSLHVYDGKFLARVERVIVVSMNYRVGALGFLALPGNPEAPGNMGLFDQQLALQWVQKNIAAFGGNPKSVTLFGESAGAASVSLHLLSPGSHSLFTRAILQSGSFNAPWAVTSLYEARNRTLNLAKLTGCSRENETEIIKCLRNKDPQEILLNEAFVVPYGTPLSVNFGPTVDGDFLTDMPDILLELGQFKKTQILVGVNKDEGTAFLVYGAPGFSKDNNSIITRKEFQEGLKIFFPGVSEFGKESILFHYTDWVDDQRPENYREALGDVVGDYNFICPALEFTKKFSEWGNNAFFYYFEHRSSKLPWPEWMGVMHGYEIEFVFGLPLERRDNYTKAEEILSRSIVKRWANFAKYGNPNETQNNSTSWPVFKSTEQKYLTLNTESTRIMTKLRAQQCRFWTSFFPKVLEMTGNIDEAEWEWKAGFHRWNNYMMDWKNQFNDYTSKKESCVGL
Recorded endpoint: IC50 (µM)
Output spec: scalar in µM, unitless text.

Q: // returns reported IC50 for input CCOC(=O)C1=C(C)N(CCC2CCN(Cc3ccccc3)CC2)C(=O)NC1c1coc2c(Cl)cc(Cl)cc2c1=O (stereo unspecified)
Ans: 17.3

====

Kindly supply the reported pIC50 values for the records listed here.
biological target: UniProtKB P22303; test: Inhibition of human AChE
The scale used: pIC50 is minus the common logarithm of the concentration in molar units.

Q: Please provide the recorded pIC50 for `COC(=O)c1cc(C(=O)c2ccc(OC)cc2)n2ccc(CCCc3cc[n+](C)cc3)cc12` , tested on UniProtKB P22303.
Ans: 5.48

Q: Follow-up item: `Clc1ccc2c(NCCCCCN3c4ccccc4Sc4ccccc43)c3c(nc2c1)CCCC3`
Ans: 8.10

Q: Follow-up item: `S=C(NCCCCNc1c2c(nc3ccccc13)CCCC2)Nc1c[nH]c2ccccc12`
Ans: 7.60

Q: Follow-up item: `COC(=O)[C@H]1[C@H]2C[C@@H]3c4[nH]c5cc(OC)ccc5c4CCN3C[C@H]2C[C@@H](OC(=O)c2cc(OC)c(OC)c(OC)c2)[C@@H]1OC`
Ans: 5.77

====

biological target: Acetylcholinesterase (Electrophorus electricus, UniProt O42275); assay: Inhibition of electric eel AChE using acetylthiocholine iodine as substrate by Ellman's method
Recorded endpoint: IC50 (µM)
Output spec: scalar in µM, unitless text.

Q: // returns reported IC50 for input `COc1ccc(/C=C/C(=O)NCCc2cc3ccccc3[nH]2)cc1OC`
Ans: 11.5

====

target: Acetylcholinesterase (Electrophorus electricus); test: Inhibition of electric eel AChE by Ellman's method
Recorded endpoint: IC50
Remember to follow the number with its unit.

Q: // returns reported IC50 for input `O=C(Nc1ccc(Oc2ccc3ccc(=O)oc3c2)cc1)c1cc(-c2cccc([N+](=O)[O-])c2)on1`
Ans: 1.23 µM

Q: Follow-up item: `O=C(/C=C/c1cccs1)N1CCc2ccccc2C1`
Ans: 19.4 µM

====

target: Cholinesterase (Equus caballus, UniProt P81908); test: Inhibition of equine BChE using butyrylthiocholine iodide incubated for 3 mins by Ellman's method
Sequence (P81908 whole entry): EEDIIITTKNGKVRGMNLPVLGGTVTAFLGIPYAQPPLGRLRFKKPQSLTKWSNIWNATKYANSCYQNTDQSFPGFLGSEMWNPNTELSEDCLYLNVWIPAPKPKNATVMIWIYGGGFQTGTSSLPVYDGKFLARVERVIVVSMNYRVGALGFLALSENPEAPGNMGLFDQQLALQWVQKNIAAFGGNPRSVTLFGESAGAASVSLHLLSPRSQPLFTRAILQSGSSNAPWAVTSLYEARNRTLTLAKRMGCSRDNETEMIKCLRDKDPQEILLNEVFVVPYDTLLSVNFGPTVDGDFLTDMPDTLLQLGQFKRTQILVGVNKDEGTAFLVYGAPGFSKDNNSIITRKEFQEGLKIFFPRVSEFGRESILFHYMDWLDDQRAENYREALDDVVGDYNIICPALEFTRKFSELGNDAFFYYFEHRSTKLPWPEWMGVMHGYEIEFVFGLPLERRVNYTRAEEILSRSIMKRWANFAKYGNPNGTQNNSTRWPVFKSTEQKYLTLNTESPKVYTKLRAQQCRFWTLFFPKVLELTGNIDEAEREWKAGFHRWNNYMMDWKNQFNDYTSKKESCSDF
Recorded endpoint: IC50
Remember to follow the number with its unit.

Q: // returns reported IC50 for input O=C(CCCCC1CCSS1)NCc1cn(CCCCOc2ccc3c(=O)ccoc3c2)nn1 (stereo unspecified)
Ans: 7.5 µM

====

biological target: Acetylcholinesterase (Homo sapiens); test: Inhibition of human recombinant AChE by spectrophotometer based Ellman's method
Sequence (P22303 whole entry): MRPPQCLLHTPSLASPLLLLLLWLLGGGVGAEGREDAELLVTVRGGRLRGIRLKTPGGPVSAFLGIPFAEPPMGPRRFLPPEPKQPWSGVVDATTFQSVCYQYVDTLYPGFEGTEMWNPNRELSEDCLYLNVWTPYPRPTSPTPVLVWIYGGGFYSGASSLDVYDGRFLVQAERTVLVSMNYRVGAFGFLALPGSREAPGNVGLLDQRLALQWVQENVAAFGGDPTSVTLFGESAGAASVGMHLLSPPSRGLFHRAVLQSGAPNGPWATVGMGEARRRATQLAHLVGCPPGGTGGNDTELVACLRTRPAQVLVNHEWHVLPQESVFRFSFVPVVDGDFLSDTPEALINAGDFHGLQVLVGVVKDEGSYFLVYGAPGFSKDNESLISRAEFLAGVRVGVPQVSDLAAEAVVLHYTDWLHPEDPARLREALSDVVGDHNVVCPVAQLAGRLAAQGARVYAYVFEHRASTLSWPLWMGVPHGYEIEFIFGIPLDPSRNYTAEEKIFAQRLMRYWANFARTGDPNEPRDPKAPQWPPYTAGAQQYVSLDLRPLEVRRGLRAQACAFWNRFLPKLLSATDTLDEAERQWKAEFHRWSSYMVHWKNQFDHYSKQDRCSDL
Recorded endpoint: pIC50
The scale used: pIC50 is minus the common logarithm of the concentration in molar units.

Q: Please provide the recorded pIC50 for `CC1=C(NC2CCN(Cc3ccccc3)CC2)C(=O)c2ccccc2C1=O` , tested on Acetylcholinesterase (Homo sapiens).
Ans: 4.32

====

molecular target: Amyloid-beta precursor protein (Homo sapiens); assay: Inhibition of amyloid beta 42 (unknown origin) self aggregation incubated for 48 hrs by fluoroMax-4 spectrofluorometeric analysis
Sequence (P05067 whole entry): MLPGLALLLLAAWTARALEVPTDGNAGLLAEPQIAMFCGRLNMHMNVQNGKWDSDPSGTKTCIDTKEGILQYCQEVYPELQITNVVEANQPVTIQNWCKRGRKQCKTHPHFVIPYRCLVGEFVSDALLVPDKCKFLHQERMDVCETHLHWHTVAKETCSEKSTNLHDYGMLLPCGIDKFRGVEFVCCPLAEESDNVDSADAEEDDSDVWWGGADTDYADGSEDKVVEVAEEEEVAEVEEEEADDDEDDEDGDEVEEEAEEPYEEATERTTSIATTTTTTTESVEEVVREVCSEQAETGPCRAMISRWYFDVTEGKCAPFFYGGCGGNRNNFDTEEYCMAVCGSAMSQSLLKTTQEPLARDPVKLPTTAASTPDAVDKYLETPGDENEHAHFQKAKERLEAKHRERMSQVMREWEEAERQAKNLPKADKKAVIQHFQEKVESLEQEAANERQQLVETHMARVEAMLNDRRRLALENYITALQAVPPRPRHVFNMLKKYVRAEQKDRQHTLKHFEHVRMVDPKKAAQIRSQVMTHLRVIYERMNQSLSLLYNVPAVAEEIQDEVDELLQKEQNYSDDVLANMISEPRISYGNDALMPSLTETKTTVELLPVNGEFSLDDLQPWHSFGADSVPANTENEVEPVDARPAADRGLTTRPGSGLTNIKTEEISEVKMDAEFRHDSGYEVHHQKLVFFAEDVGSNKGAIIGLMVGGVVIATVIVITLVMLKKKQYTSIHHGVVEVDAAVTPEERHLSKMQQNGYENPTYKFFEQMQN
Recorded endpoint: pIC50
The scale used: pIC50 is minus the common logarithm of the concentration in molar units.

Q: Please provide the recorded pIC50 for `O=C(NCCCNc1c2c(nc3cc(Cl)ccc13)CCCC2)c1nc2ccc([N+](=O)[O-])cc2s1` , tested on Amyloid-beta precursor protein (Homo sapiens).
Ans: 5.42

====

target: Acetylcholinesterase (Electrophorus electricus); experiment: Inhibition of electric eel AChE
Recorded endpoint: IC50 (µM)
Output spec: scalar in µM, unitless text.

Q: // returns reported IC50 for input `O=C(NCCNc1c2c(nc3cc(Cl)ccc13)CCCC2)c1cc(-c2ccc(Cl)cc2)on1`
Ans: 0.052

Q: Follow-up item: COC(=O)C(C)c1ccc(-c2ccc(C(=O)/C=C/c3ccc(CN4CCCC4)c(O)c3)cc2)c(F)c1 (configuration not stated)
Ans: 7.15

====

target: Acetylcholinesterase (Homo sapiens); assay: Inhibition of human erythrocyte AChE using ATC iodide as substrate preincubated for 5 mins followed by substrate addition measured Ellmans method
Recorded endpoint: IC50 (nM)
Output spec: scalar in nM, unitless text.

Q: // returns reported IC50 for input CCOC(=O)C1=C(C)N(CCC2CCN(Cc3ccccc3)CC2)C(=O)NC1c1coc2c(Cl)cc(Cl)cc2c1=O (stereo unspecified)
Ans: 60

====

target: Acetylcholinesterase (Homo sapiens); test: Inhibition of human erythrocyte AChE using […] as substrate preincubated for 5 mins followed by substrate addition measured Ellmans method
Recorded endpoint: pIC50
The scale used: pIC50 is minus the common logarithm of the concentration in molar units.

Q: // returns reported pIC50 for input `O=c1nc2sc3ccccc3n2c2ncccc12`
Ans: 5.56

====

biological target: Acetylcholinesterase (Torpedo californica); assay: Inhibition of pacific electric ray AChE; set-up: species or system Tetronarce californica
Recorded endpoint: IC50 (nM)
Output spec: scalar in nM, unitless text.

Q: // returns reported IC50 for input `COc1cccc2cc(C(=O)NCCCNc3c4c(nc5cc(Cl)ccc35)CCCC4)oc12`
Ans: 130

====

molecular target: Cholinesterase (Homo sapiens); assay: Inhibition of human BChE by Ellmans method
Kindly supply the reported IC50 values for the records listed here.

Q: Please provide the recorded IC50 for FC(F)(F)c1ccc(-c2nnc(CNC3CCN(Cc4ccccc4)C3)o2)cc1 (configuration not stated) , tested on Cholinesterase (Homo sapiens).
Ans: 74 nM

Q: Follow-up item: `O=C(/C=C/c1cccs1)N1CCc2ccccc2C1`
Ans: 2500 nM

====

target: Acetylcholinesterase (Electrophorus electricus, UniProt O42275); assay: Inhibition of electric eel AChE incubated for 15 mins by Ellman's method
Recorded endpoint: IC50

Q: Please provide the recorded IC50 for `O=C(NC1CCN(Cc2ccccc2)CC1)c1cc(-c2cccc([N+](=O)[O-])c2)on1` , tested on Acetylcholinesterase (Electrophorus electricus, UniProt O42275).
Ans: 16.1 µM

====

target: Acetylcholinesterase (Torpedo californica, UniProt P04058); test: Inhibition of pacific electric ray AChE incubated for 15 mins; design: species or system Tetronarce californica
Sequence (P04058 whole entry): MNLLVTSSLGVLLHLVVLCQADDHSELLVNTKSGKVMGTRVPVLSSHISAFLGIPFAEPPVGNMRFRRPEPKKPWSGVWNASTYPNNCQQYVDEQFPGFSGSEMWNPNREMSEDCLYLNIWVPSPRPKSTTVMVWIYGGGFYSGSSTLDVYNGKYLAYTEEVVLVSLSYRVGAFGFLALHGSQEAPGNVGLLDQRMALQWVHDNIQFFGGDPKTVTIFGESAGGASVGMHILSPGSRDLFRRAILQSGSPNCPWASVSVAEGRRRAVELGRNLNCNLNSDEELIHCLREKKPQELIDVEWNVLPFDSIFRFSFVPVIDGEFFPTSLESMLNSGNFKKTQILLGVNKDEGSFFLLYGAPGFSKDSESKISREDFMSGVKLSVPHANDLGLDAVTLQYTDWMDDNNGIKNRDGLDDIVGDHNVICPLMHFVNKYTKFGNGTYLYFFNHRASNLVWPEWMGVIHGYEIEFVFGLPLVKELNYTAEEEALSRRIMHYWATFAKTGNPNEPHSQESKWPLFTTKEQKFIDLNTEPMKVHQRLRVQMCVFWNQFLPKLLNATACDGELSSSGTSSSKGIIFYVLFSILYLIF
Recorded endpoint: pIC50
The scale used: pIC50 is minus the common logarithm of the concentration in molar units.

Q: // returns reported pIC50 for input `COc1ccc(C(=O)CCC(=O)NCCCNc2c3c(nc4ccccc24)CCCC3)c2ccccc12`
Ans: 6.92

====

target: Beta-secretase 1 (Homo sapiens); assay: Inhibition of BACE1 (unknown origin) by FRET-based fluorescent analysis
Sequence (P56817 whole entry): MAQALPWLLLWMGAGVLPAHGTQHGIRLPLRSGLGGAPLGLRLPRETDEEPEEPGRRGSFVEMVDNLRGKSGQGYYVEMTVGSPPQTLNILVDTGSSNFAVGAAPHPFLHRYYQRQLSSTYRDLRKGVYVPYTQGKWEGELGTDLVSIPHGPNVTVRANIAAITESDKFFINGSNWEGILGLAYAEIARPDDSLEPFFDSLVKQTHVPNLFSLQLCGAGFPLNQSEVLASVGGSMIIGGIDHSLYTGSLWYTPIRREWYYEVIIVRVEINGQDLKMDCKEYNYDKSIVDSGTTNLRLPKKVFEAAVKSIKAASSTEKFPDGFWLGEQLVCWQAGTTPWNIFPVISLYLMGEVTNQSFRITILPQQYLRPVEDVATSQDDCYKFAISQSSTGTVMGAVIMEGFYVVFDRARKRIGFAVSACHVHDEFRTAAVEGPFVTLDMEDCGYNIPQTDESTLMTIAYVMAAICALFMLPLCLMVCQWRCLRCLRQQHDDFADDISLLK
Recorded endpoint: pIC50
The scale used: pIC50 is minus the common logarithm of the concentration in molar units.

Q: // returns reported pIC50 for input FC(F)(F)c1ccc(-c2nnc(CNC3CCN(Cc4ccccc4)C3)o2)cc1 (stereo unspecified)
Ans: 6.84

====

target: Cholinesterase (Homo sapiens); assay: Inhibition of human recombinant BChE by Ellmans method preincubated for 5 mins followed by substrate addition measured every 2 mins
Recorded endpoint: IC50 (mM)
Output spec: scalar in mM, unitless text.

Q: Please provide the recorded IC50 for `O=C(NCCCNc1c2c(nc3cc(Cl)ccc13)CCCC2)c1nc2ccc([N+](=O)[O-])cc2s1` , tested on Cholinesterase (Homo sapiens).
Ans: 4.66

====

Target: Acetylcholinesterase (Rattus norvegicus)
Sequence (P37136 whole entry): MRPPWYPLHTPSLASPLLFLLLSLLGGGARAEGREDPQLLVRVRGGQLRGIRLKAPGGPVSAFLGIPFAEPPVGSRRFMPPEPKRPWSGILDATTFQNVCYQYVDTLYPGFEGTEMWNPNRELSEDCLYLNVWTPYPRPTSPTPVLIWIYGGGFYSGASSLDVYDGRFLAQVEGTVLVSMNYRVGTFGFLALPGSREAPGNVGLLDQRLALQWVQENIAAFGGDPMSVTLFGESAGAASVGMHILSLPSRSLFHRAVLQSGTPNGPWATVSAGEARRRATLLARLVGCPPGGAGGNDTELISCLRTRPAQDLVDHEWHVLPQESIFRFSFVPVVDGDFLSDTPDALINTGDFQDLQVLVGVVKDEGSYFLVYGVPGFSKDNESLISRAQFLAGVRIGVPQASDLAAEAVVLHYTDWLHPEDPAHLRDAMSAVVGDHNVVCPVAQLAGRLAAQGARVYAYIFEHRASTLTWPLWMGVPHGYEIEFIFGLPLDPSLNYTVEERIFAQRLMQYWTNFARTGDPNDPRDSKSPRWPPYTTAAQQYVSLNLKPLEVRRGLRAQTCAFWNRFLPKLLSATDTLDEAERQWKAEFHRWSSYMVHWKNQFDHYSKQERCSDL
Recorded endpoint: pIC50
The scale used: pIC50 is minus the common logarithm of the concentration in molar units.

Q: // returns reported pIC50 for input `CCN(CCCCCCOc1ccc(/C=C/C(=O)c2c(O)cc(OC)c(O)c2OC)cc1)Cc1ccccc1OC`
Ans: 6.39
